Assay: gradient 5% acetonitrile 3 min, to 50% in 2 min, to 85% in 15 min, held 3 min, 100 µL/min
Details: column: Zorbax Extend-C18 2.1 x 50 mm; eluents: water / acetonitrile, 0.1% formic acid
ASSAY METRIC: RP-LC retention time (s)

MOLECULE: COc1cc2c(cc1OC)C(Nc1nc(-c3ccccc3)cs1)=NC(C)(C)C2
ASSAY METRIC: RP-LC retention time
UNIT STRING: s
NUMERIC VALUE: 878
--
MOLECULE: O=C(c1cccc(Cl)c1)N1CCN(c2cc(-c3cccs3)[nH]n2)CC1
ASSAY METRIC: RP-LC retention time
UNIT STRING: s
NUMERIC VALUE: 816
--
MOLECULE: OCCOCCNCc1ccc(-c2ccc(Cl)cc2)o1
ASSAY METRIC: RP-LC retention time
UNIT STRING: s
NUMERIC VALUE: 644
--
MOLECULE: O=C(Cc1ccsc1)N1C[C@H]2C[C@H](C1)[C@H]1CCCC(=O)N1C2
ASSAY METRIC: RP-LC retention time
UNIT STRING: s
NUMERIC VALUE: 631
--
MOLECULE: O=C(O)c1nnn(-c2ccc3c(c2)CCC3)c1-c1cccnc1
ASSAY METRIC: RP-LC retention time
UNIT STRING: s
NUMERIC VALUE: 711
--
MOLECULE: Fc1ccc(-c2nc(-c3cn(Cc4cccc(F)c4)nn3)no2)cc1
ASSAY METRIC: RP-LC retention time
UNIT STRING: s
NUMERIC VALUE: 1010
--
MOLECULE: COc1ccc2oc(-c3csc(NC(=O)c4ccc([N+](=O)[O-])s4)n3)cc2c1
ASSAY METRIC: RP-LC retention time
UNIT STRING: s
NUMERIC VALUE: 1110
--
MOLECULE: Cc1ccc(NC(=O)c2cnc3c(c2)c(=O)n(C)c(=O)n3-c2ccccc2)cc1F
ASSAY METRIC: RP-LC retention time
UNIT STRING: s
NUMERIC VALUE: 956
--
MOLECULE: CN(C)C(=O)c1cc2c(s1)CCC(C(=O)Nc1ccc3c(c1)OCO3)C2 (stereo not drawn)
ASSAY METRIC: RP-LC retention time
UNIT STRING: s
NUMERIC VALUE: 698
--
MOLECULE: Cc1ccc(CS(=O)(=O)N2CCC(CN3CCCC(C)C3)CC2)cc1 (stereo not drawn)
ASSAY METRIC: RP-LC retention time
UNIT STRING: s
NUMERIC VALUE: 688
--
MOLECULE: COc1ccc(-c2nc(C)cc(C)c2CNC(=O)c2cccs2)cc1
ASSAY METRIC: RP-LC retention time
UNIT STRING: s
NUMERIC VALUE: 610
--
MOLECULE: CCc1ccc(CNC(=O)Cn2c(C)nc3onc(C)c3c2=O)cc1
ASSAY METRIC: RP-LC retention time
UNIT STRING: s
NUMERIC VALUE: 821
--
MOLECULE: O=C(CN1C(=O)C(C(=O)N2CCCCC2)Sc2ccccc21)N1CCN(c2ccccn2)CC1 (stereo not drawn)
ASSAY METRIC: RP-LC retention time
UNIT STRING: s
NUMERIC VALUE: 634
